Property: pKd; scope: individual binders
- test target: T1, recombinant mouse TfR-1, His-tagged (Sino Biological 50741-M07H) (mouse, UniProt Q62351 89-763)
- T1 construct: bought; His-tagged; also called mTfR1; mTfR-1
- T1 sequence (Q62351 89-763 limits assumed, stated change not applied): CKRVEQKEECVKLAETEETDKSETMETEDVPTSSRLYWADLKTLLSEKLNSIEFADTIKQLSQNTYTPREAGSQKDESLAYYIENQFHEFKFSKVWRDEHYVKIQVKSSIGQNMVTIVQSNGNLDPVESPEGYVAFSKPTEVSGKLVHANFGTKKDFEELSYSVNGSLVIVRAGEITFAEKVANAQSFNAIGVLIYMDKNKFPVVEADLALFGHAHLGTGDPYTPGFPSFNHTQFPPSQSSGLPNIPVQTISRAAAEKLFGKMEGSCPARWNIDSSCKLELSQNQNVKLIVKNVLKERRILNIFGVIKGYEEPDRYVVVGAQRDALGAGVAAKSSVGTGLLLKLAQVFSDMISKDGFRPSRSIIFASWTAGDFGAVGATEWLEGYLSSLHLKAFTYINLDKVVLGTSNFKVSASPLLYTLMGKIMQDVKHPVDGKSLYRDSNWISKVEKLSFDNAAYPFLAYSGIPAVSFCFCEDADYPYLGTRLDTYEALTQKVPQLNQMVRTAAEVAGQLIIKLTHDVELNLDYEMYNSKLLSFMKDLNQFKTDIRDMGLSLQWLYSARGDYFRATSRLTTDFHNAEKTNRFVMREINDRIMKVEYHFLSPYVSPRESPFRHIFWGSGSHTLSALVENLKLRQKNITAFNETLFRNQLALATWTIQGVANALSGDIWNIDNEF
- test summary: SPR, His-captured TfR1
Scale: negative log10 of molar concentration, which is what pKd denotes.

These solved cases illustrate the format of a correct answer.
1. Clone C variant 7 VNAR-hFc (Fc fusion, not shown: a dimerising Fc or GST) ARVDQTPQTITKETGESLTINCVLRDSNCALSSTYWYRKKSGSTNEENISKGGRYVETVNSGSKSFSLRINDLTVEDSGTYRCNVVQWPSLSSPFWCDVYGDGTAVTVN : 9.54
2. Clone C variant 15 VNAR-hFc (Fc fusion, not shown: a dimerising Fc or GST) ARVDQTPQTITKETGESLTINCVLRDSNCALSSTYWYRKKSGSTNEENISKGGRYVETVNSGSKSFSLRINDLTVEDSGTYRCNVVQYPQQPNYFWCDVYGDGTAVTVN : 10.04
3. Clone C variant 2 VNAR-hFc (Fc fusion, not shown: a dimerising Fc or GST) ARVDQTPQTITKETGESLTINCVLRDSNCALSSTYWYRKKSGSTNEENISKGGRYVETVNSGSKSFSLRINDLTVEDSGTYRCNVLQRPSYNNYFWCDVYGDGTAVTVN : 8.02
4. Clone C variant 12 VNAR-hFc (Fc fusion, not shown: a dimerising Fc or GST) ARVDQTPQTITKETGESLTINCVLRDSNCALSSTYWYRKKSGSTNEENISKGGRYVETVNSGSKSFSLRINDLTVEDSGTYRCNVVQYPQQDNPFWCDVYGDGTAVTVN : 9.15
5. Clone C variant 19 VNAR-hFc (Fc fusion, not shown: a dimerising Fc or GST) ARVDQTPQTITKETGESLTINCVLRDSNCALSSTYWYRKKSGSTNEENISKGGRYVETVNSGSKSFSLRINDLTVEDSGTYRCNVVQYPRTNNYFWCDVYGDGTAVTVN : 8.88

Tell me the measured pKd of Clone C variant 20 VNAR-hFc (Fc fusion, not shown: a dimerising Fc or GST) ARVDQTPQTITKETGESLTINCVLRDSNCALSSTYWYRKKSGSTNEENISKGGRYVETVNSGSKSFSLRINDLTVEDSGTYRCNVVQYPSHNNYFWCDVYGDGTAVTVN , please. 8.69

Tell me the measured pKd of Clone C VNAR-hFc fusion (Fc fusion, not shown: a dimerising Fc or GST, bivalent VNAR-Fc; also called Clone C-hFc) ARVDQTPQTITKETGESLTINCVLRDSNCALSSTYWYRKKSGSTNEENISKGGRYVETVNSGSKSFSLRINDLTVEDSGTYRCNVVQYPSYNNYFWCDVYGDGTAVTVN , please. 9.05

Tell me the measured pKd of Clone C variant 3 VNAR-hFc (Fc fusion, not shown: a dimerising Fc or GST) ARVDQTPQTITKETGESLTINCVLRDSNCALSSTYWYRKKSGSTNEENISKGGRYVETVNSGSKSFSLRINDLTVEDSGTYRCNVVQHPSYNNYFWCDVYGDGTAVTVN , please. 9.14
